These entries and their values trace back to ChEMBL document CHEMBL3868624.

Test: Cytotoxicity against human SH-SY5Y cells assessed as cell viability at 12.5 uM after 48 hrs by MTT assay relative to control
Type: toxicity, cell-based
Details: read-out: Activity
viability at 48 h, 12.5 µM under 90% gets label 1, anything at or over 90% gets label 0.

CN(C)C(=O)Oc1cccc(/C=C/C(=O)c2cccc(O)c2)c1 ... label 1
CCN(C)C(=O)Oc1cccc(C(=O)/C=C/c2ccc(O)cc2)c1 ... label 1
CCN(C)C(=O)Oc1ccc(C(=O)/C=C/c2ccc(OC)cc2)cc1 ... label 1
CN(C)C(=O)Oc1ccc(/C=C/C(=O)c2ccc(O)cc2)cc1 ... label 1
CCN(C)C(=O)Oc1ccc(/C=C/C(=O)c2cccc(O)c2)cc1 ... label 0
CCN(C)C(=O)Oc1cccc(C(=O)/C=C/c2ccc(OC)cc2)c1 ... label 0

QUERY: I'd appreciate it if you could check whether CCN(C)C(=O)Oc1ccc(/C=C/C(=O)c2ccc(O)cc2)cc1 has viability at 48 h, 12.5 µM smaller than 90%.
RESULT: label 1

QUERY: I'd appreciate it if you could check whether COc1ccc(/C=C/C(=O)c2cccc(OC(=O)N(C)C)c2)cc1 has viability at 48 h, 12.5 µM smaller than 90%.
RESULT: label 0

QUERY: I'd appreciate it if you could check whether CCN(C)C(=O)Oc1cccc([C@H](C)N(C)C)c1 has viability at 48 h, 12.5 µM smaller than 90%.
RESULT: label 0

###

# viability at 48 h, 6.25 µM values compiled below
Assay: Cytotoxicity against human SH-SY5Y cells assessed as cell viability at 6.25 uM after 48 hrs by MTT assay relative to control
Format: toxicity, cell-based
Settings: read-out: Activity
Answer with the value and then the unit.

CCN(C)C(=O)Oc1ccc(/C=C/C(=O)c2cccc(O)c2)cc1 ... 96.1%
CCN(C)C(=O)Oc1cccc(/C=C/C(=O)c2ccc(O)cc2)c1 ... 95.1%
CN(C)C(=O)Oc1cccc(C(=O)/C=C/c2ccc(O)cc2)c1 ... 102%
CCN(C)C(=O)Oc1cccc(/C=C/C(=O)c2cccc(O)c2)c1 ... 101%
CCN(C)C(=O)Oc1cccc([C@H](C)N(C)C)c1 [RIVASTIGMINE] ... 98.5%
CCN(C)C(=O)Oc1ccccc1C(=O)/C=C/c1ccc(O)cc1 ... 86%

Input CN(C)C(=O)Oc1cccc(/C=C/C(=O)c2ccc(O)cc2)c1 . Output viability at 48 h, 6.25 µM: 83.9%

Input CCN(C)C(=O)Oc1cccc(C(=O)/C=C/c2ccc(OC)cc2)c1 . Output viability at 48 h, 6.25 µM: 101%

###

Test: Cytotoxicity against human SH-SY5Y cells assessed as cell viability at 100 uM after 48 hrs by MTT assay relative to control
Format: toxicity, cell-based
Details: read-out: Activity
viability at 48 h, 100 µM under 5% gets class 1, anything at or over 5% gets class 0.

CN(C)C(=O)Oc1ccc(/C=C/C(=O)c2ccc(O)cc2)cc1 ... class 0
CCN(C)C(=O)Oc1cccc([C@H](C)N(C)C)c1 ... class 0
CCN(C)C(=O)Oc1ccc(/C=C/C(=O)c2ccc(O)cc2)cc1 ... class 1
CN(C)C(=O)Oc1cccc(C(=O)/C=C/c2ccc(O)cc2)c1 ... class 0
CN(C)C(=O)Oc1cccc(/C=C/C(=O)c2ccc(O)cc2)c1 ... class 1

QUERY: I'd appreciate it if you could check whether CCN(C)C(=O)Oc1cccc(/C=C/C(=O)c2ccc(O)cc2)c1 has viability at 48 h, 100 µM smaller than 5%.
RESULT: class 1

QUERY: I'd appreciate it if you could check whether CCN(C)C(=O)Oc1cccc(C(=O)/C=C/c2ccc(O)cc2)c1 has viability at 48 h, 100 µM smaller than 5%.
RESULT: class 0

###

# IC50 values compiled below
Target: Acetylcholinesterase (Homo sapiens)
Sequence (P22303 whole entry): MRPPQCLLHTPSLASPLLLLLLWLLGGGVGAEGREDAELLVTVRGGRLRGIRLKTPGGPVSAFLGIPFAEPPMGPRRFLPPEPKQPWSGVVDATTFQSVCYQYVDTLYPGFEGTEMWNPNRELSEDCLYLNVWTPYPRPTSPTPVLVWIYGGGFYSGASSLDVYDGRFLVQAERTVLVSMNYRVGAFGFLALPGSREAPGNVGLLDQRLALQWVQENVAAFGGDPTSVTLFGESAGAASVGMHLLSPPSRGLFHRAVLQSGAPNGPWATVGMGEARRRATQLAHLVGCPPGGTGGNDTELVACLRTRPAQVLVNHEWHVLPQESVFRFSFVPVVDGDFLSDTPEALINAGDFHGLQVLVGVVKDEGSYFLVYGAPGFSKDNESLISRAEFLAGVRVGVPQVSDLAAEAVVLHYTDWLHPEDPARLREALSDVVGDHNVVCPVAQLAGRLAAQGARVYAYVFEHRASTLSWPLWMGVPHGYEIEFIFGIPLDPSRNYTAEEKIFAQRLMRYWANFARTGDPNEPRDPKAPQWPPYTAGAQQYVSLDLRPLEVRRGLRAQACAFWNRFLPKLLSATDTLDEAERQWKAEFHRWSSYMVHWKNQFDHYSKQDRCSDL
Test: Inhibition of human recombinant AChE using acetylthiocholine iodide as substrate preincubated for 15 mins followed by substrate addition by Ellman's method
Write it as a number; the unit µM goes unstated.

CN(C)C(=O)Oc1cccc(C(=O)/C=C/c2ccc(O)cc2)c1 ... 0.87

Now take the following compound into account.
Input COc1ccc(/C=C/C(=O)c2cccc(OC(=O)N(C)C)c2)cc1 . Output IC50: 8.05

###

Biological target: Cholinesterase (Homo sapiens)
Sequence (P06276 whole entry): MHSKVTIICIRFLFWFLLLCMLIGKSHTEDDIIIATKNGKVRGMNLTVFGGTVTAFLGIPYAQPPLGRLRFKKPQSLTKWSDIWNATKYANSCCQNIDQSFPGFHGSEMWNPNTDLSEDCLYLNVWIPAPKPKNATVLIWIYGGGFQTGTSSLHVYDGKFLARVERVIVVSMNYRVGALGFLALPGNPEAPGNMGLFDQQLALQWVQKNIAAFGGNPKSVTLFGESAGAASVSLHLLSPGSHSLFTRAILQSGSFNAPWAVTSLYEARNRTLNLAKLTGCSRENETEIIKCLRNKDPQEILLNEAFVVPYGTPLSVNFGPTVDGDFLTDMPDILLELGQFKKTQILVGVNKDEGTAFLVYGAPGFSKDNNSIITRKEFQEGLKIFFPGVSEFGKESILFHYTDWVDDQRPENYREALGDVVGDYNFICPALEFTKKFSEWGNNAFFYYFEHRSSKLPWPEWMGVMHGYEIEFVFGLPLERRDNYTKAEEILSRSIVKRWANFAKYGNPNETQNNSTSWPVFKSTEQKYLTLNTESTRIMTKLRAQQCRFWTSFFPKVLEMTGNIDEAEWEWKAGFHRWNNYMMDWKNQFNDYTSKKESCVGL
Experiment: Inhibition of human serum BChE using S-Butyrylthiocholine iodide as substrate at 10 uM preincubated for 15 mins followed by substrate addition by Ellman's method
# inhibition values compiled below

Please review the entries below; each comes with its answer.
CCN(C)C(=O)Oc1cccc(C(=O)/C=C/c2ccc(O)cc2)c1 ... > 50%
CCN(C)C(=O)Oc1cccc(/C=C/C(=O)c2ccc(O)cc2)c1 ... > 50%
CCN(CC)C(=O)Oc1cccc(C(=O)/C=C/c2ccc(OC)cc2)c1 ... < 50%
CN(C)C(=O)Oc1cc(OC(=O)N(C)C)cc(C(=O)/C=C/c2ccc(O)cc2)c1 ... < 50%

Now take the following compound into account.
Input CCN(C)C(=O)Oc1ccc(C(=O)/C=C/c2ccc(O)cc2)cc1 . Output inhibition: < 50%

###

# viability at 48 h, 25 µM values compiled below
Test: Cytotoxicity against human SH-SY5Y cells assessed as cell viability at 25 uM after 48 hrs by MTT assay relative to control
Format: toxicity, cell-based
Settings: read-out: Activity
Write it as a number; the unit % goes unstated.

Please review the entries below; each comes with its answer.
COc1ccc(/C=C/C(=O)c2cccc(OC(=O)N(C)C)c2)cc1 ... 74.3
CN(C)C(=O)Oc1cccc(C(=O)/C=C/c2ccc(O)cc2)c1 ... 94.6
CN(C)C(=O)Oc1ccc(/C=C/C(=O)c2ccc(O)cc2)cc1 ... 60.4

Input CCN(C)C(=O)Oc1ccc(/C=C/C(=O)c2cccc(O)c2)cc1 . Output viability at 48 h, 25 µM: 67.1

Input CCN(C)C(=O)Oc1cccc(C(=O)/C=C/c2ccc(O)cc2)c1 . Output viability at 48 h, 25 µM: 49.2

Input CCN(C)C(=O)Oc1ccc(C(=O)/C=C/c2ccc(OC)cc2)cc1 . Output viability at 48 h, 25 µM: 83.2

Input CCN(C)C(=O)Oc1cccc(/C=C/C(=O)c2ccc(O)cc2)c1 . Output viability at 48 h, 25 µM: 60.2

###

Test: Cytotoxicity against human SH-SY5Y cells assessed as cell viability at 100 uM after 48 hrs by MTT assay relative to control
Format: toxicity, cell-based
Conditions: read-out: Activity
Parameter measured: viability at 48 h, 100 µM
Answer with the value and then the unit.

CCN(C)C(=O)Oc1cccc(/C=C/C(=O)c2cccc(O)c2)c1 ... 0.16%
CCN(C)C(=O)Oc1cccc(C(=O)/C=C/c2ccc(OC)cc2)c1 ... 0.63%
CCN(C)C(=O)Oc1ccc(/C=C/C(=O)c2cccc(O)c2)cc1 ... 0.81%
CN(C)C(=O)Oc1cccc(/C=C/C(=O)c2cccc(O)c2)c1 ... 1.03%
CCN(C)C(=O)Oc1ccccc1C(=O)/C=C/c1ccc(O)cc1 ... 52.2%
CCN(C)C(=O)Oc1ccc(C(=O)/C=C/c2ccc(OC)cc2)cc1 ... 0.22%

Now take the following molecule into account.
Input COc1ccc(/C=C/C(=O)c2cccc(OC(=O)N(C)C)c2)cc1 . Output viability at 48 h, 100 µM: 0.67%
